The values you see were collected from PubChem BioAssay (NCI).

System: NCI-H460 lung
Your answer must be one of the following: yes (1) = active, no (0) = inactive

Some solved cases for reference:
# Molecule, Classification
rows = [
    ("CCc1c(C#N)c(SC(C(N)=O)c2ccccc2)nc(N2CCC(N)CC2)c1C#N (stereo not given)", "no (0)"),
    ("CCc1ccc(C2=NN(c3ccc(S(C)(=O)=O)cc3)C(=O)CC2)cc1", "no (0)"),
]

Now examine the next entry.
For `Cc1ccc(O)cc1Nc1ccnc2cc(-c3ccccn3)ccc12` , what call appears in the results of this test?
no (0)

---

Test system: HCC-2998 colon
Test: NCI tumour cell line growth inhibition, 48 h
Would you mind telling me the reported TGI of each entry?

# Molecule, TGI
measured = [
    ("CCOC(=O)n1c2ccccc2c(=O)n1CCO", "> 100 µM"),
]

# batch size: 4; output TGI per entry
1. COc1cccc2c1[C@H]1OC(=O)NC1CCCCC2 (stereo not given in full)
2. O=C(CN(/C=C/C(=O)C(F)(F)F)c1ccccc1)c1ccc(F)cc1
3. O=C(O)Cc1ccc(Oc2nc3ccccc3nc2-c2ccccc2)cc1
4. CC(=O)O[C@H]1C[C@H]2[C@@H]([C@H](OC(C)=O)C[C@@H]3CC4(CC[C@@]32C)OOC2(CCCCC2)OO4)[C@@H]2CC[C@H]([C@H](C)CCC(=O)O)[C@@]12C

1: > 100 µM; 2: 41.6 µM; 3: 99.5 µM; 4: 25 µM

---

Test system: 786-0 renal
Test: NCI tumour cell line growth inhibition, 48 h
Measurement Type: TGI

Completed entries (count: 5):
# Compound, Result
records = [
    ("Clc1cccc2[nH]ncc12", "> 100 µM"),
    ("CN(C)CCNC(=O)c1cccc2cc3ccc4ccccc4c3nc12", "1.37 µM"),
    ("Cc1n(Cc2ccc3ccccc3n2)cc[n+]1Cc1ccc2ccccc2c1", "18.2 µM"),
    ("Cn1cnnc1SC(F)(F)c1nc2ccccc2o1", "> 100 µM"),
    ("NC(=O)C(=O)Cc1nc2ccccc2s1", "> 100 µM"),
]

For each of the items listed, what is its TGI?
1. COc1cccc(/C=N/[N-]C(N)=O)c1[O-].[OH3+].[Pd+2]
2. CC(=O)c1sc2c(c1O)c(=O)n(-c1ccccc1)c(=S)n2-c1ccccc1
3. CON(C)C(=O)C(C)NC(=O)OC(C)(C)C (configuration not stated)
4. CC(C)=NNc1ncnc2nc[nH]c12

["> 100 µM", "> 100 µM", "> 100 µM", "> 100 µM"]

Report TGI for each item below.
1. N#C[C@H](C(=O)c1ccccc1F)c1nc2ccccc2[nH]1
2. O=C(NN1C(=O)C(Cl)C1c1c(O)ccc2ccccc12)c1ccccc1O (configuration not stated)
3. Cc1cc2c3c(c1)CCCN3CCC2

["> 100 µM", "> 100 µM", "> 10 µM"]

---

Tested on: HOP-92 NSCLC
Test: NCI tumour cell line growth inhibition, 48 h
Measurement Type: TGI (µM)
Give bare numbers, in µM.

# Molecule, Result
measured = [
    ("CC1CCC2c3c([nH]c4ccccc34)C3C(=O)N(c4ccccc4)C(=O)C3C2C1 (stereo not given)", 56.8),
]

Turning to the following molecule.
Please list TGI recorded for the molecule `Cc1ccc(-c2nc(C(Cl)Cl)nc3cc(C)nn23)cc1`
7.64
